Ref: the RNAGym collection of RNA variant scans (doi:10.7554/elife.80360)

B1: Hairpin Ribozyme (parent)
chain: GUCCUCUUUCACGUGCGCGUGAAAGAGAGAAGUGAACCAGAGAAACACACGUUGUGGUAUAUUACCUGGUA

variants of: B1; test: self-cleavage, relative activity (ratio to wild type); higher = more cleavage; co-transcriptional

>  <RESIDUE_CODES>
GUCCUCUUUCACGCGCGCGUGAAAGAGAGAAGUAAACCAGAGAAACACACGUUGUGGUAUAUUACCUGGUA

>  <self-cleavage>
0.988

$$$$
>  <RESIDUE_CODES>
GUCCUCUUUCACGUGCGCGUGAAAGAGAGAAGUGAACCAGAGCAACACACUUUGUGGUAUAUUACCUGGUA

>  <self-cleavage>
0.0904

$$$$
>  <RESIDUE_CODES>
GUCCUCUUUCACGUGCGCGUGAAAGAGAGAAGUGAACCAGAGAAACACGCGUUGUCGUAUAUUACCUGGUA

>  <self-cleavage>
0.155

$$$$
>  <RESIDUE_CODES>
GUCCUCUUUCACGUGCGCGUGAAAGAGAGAAGUGAACCAGAGAAACAUACGUUGUGGUAUAUUACCUGGUG

>  <self-cleavage>
0.242

$$$$
>  <RESIDUE_CODES>
GUCCUGUUUCACGUGCGCGUGAAAGAGAGAAGUGAACCAGAGAAACACACGUUUUGGUAUAUUACCUGGUA

>  <self-cleavage>
0.267

$$$$
>  <RESIDUE_CODES>
GUCCUCUUUCACGUGCGCGUGAAAGAGAGAAGUGAACCAGACAAACACACGUUGUGGUAUAUUACCUGGCA

>  <self-cleavage>
0.233

$$$$
